target: HDAC-1 (Homo sapiens (Human))
Sequence (Q13547 whole entry, species assumed): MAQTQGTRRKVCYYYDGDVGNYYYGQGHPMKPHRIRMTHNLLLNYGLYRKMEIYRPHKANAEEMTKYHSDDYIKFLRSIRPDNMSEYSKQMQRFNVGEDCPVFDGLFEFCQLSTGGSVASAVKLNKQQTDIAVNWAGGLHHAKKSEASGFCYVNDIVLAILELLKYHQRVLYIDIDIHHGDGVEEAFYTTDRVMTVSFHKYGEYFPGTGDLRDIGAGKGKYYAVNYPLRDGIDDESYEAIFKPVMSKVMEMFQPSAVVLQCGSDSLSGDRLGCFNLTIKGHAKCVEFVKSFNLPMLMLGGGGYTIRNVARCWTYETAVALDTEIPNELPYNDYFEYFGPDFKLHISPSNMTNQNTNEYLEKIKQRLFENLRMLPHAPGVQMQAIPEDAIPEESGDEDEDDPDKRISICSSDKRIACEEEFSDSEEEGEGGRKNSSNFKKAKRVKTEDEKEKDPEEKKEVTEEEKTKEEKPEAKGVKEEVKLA
test-readout: IC50 (nM)
Quick reminder: number only, in nM, skip the unit.

-- ask Request body: readout IC50, system HDAC-1 (Homo sapiens (Human)), query "Cn1c(CCCCCCC(=O)NO)nc2cc(N(CCCl)CCCl)ccc21" . Return the value.
-- reply 17

###

biological target: HDAC-3 (Homo sapiens (Human))
Sequence (O15379 whole entry, looked up, species assumed): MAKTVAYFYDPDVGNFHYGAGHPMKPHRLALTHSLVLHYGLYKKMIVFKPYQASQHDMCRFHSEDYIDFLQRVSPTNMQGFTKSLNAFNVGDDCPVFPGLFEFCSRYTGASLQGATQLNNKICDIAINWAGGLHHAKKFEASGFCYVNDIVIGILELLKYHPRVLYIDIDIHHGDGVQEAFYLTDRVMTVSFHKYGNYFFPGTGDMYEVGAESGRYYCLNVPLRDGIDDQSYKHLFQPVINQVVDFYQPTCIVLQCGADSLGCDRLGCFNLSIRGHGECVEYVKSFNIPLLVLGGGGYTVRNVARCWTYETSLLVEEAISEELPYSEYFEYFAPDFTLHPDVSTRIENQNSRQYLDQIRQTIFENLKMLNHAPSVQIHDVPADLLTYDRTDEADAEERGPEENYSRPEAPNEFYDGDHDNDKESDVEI
Sequence (Q9Y618 whole entry partner, looked up, species assumed): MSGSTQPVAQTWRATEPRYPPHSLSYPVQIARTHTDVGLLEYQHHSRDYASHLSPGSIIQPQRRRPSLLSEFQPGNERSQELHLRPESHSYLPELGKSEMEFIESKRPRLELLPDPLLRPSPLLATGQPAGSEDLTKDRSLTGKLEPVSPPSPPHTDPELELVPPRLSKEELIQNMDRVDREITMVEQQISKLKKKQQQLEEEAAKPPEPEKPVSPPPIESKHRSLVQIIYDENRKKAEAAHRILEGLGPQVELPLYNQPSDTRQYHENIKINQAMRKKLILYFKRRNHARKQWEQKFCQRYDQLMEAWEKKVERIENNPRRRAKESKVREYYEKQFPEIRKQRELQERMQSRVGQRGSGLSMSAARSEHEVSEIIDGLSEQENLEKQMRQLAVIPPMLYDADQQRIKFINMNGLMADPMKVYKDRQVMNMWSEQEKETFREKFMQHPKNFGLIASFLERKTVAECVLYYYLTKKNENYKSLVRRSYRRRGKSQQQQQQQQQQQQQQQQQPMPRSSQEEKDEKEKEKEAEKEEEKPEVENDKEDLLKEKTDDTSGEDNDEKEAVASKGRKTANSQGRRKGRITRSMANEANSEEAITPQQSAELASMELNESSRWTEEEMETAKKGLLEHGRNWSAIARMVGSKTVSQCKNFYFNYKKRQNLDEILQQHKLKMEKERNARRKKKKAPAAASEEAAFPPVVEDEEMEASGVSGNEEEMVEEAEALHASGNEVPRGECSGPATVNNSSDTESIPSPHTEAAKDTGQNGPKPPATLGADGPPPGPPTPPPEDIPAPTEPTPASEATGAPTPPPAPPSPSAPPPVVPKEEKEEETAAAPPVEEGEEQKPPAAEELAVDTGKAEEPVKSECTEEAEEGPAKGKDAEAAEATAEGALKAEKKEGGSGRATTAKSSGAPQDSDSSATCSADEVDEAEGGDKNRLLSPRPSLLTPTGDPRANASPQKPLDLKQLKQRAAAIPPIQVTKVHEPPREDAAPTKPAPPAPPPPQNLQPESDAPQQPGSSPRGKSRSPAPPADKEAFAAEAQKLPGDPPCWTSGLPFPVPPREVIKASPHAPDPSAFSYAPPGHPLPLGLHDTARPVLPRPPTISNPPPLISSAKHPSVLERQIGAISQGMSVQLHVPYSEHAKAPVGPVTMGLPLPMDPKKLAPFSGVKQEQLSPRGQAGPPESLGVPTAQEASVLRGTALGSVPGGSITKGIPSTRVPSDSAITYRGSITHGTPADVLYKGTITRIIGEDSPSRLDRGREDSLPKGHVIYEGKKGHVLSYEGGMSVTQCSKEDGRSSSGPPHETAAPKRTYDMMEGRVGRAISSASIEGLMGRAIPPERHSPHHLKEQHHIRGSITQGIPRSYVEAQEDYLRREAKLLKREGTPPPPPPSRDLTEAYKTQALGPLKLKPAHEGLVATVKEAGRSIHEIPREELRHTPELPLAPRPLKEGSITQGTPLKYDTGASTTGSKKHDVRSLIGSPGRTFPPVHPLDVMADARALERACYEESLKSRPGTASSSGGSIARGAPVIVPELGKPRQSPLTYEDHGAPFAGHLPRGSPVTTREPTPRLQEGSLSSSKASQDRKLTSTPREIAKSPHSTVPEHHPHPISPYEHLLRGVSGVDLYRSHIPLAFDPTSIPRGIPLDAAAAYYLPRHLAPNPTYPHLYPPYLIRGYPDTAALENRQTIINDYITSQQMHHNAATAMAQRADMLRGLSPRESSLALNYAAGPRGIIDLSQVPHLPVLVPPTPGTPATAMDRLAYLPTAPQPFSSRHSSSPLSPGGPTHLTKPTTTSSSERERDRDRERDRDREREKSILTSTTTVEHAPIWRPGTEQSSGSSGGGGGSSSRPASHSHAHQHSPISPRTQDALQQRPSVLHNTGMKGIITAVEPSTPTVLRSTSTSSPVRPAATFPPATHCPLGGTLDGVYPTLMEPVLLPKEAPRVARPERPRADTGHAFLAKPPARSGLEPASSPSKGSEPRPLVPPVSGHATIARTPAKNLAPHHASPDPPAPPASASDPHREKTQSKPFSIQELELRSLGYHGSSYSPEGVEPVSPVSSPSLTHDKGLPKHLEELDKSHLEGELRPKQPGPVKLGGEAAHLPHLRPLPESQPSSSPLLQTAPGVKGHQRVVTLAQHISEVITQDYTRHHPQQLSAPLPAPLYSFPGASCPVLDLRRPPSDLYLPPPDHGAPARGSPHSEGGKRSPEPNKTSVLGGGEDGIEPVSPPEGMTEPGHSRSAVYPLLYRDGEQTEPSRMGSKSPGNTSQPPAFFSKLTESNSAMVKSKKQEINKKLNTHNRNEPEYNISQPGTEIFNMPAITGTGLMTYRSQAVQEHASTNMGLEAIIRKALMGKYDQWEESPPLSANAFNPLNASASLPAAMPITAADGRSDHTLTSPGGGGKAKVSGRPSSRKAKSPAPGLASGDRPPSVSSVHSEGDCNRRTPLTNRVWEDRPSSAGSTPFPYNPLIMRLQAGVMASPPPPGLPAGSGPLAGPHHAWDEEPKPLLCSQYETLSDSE
test-readout: pIC50
// pIC50 is dimensionless: -log10 of concentration (M)

-- ask Request body: readout pIC50, system HDAC-3 (Homo sapiens (Human)), query "Cn1c(CCCCCCC(=O)NO)nc2cc(N(CCCl)CCCl)ccc21" . Return the value.
-- reply 7.60

###

target: HDAC-2 (Homo sapiens (Human))
Sequence (Q92769 whole entry, species assumed): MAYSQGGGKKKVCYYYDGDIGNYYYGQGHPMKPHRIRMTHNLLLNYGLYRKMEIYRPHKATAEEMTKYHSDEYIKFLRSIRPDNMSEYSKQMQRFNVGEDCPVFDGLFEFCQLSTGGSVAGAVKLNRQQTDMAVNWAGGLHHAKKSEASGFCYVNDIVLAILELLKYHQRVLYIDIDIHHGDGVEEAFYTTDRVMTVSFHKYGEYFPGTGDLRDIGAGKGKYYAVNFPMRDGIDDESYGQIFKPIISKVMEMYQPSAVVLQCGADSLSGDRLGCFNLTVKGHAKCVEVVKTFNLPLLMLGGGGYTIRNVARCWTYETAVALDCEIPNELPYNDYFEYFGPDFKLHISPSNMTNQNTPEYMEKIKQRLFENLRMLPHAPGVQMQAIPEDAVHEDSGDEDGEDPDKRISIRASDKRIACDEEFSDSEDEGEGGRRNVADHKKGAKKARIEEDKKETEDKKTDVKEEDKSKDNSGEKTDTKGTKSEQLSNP
test-readout: IC50 (nM)
Quick reminder: number only, in nM, skip the unit.

-- ask Request body: readout IC50, system HDAC-2 (Homo sapiens (Human)), query "Cn1c(CCCCCCC(=O)NO)nc2cc(N(CCCl)CCCl)ccc21" . Return the value.
-- reply 9

###

molecular target: HDAC-10 (Homo sapiens (Human), UniProt Q969S8)
Sequence (Q969S8 whole entry, species assumed): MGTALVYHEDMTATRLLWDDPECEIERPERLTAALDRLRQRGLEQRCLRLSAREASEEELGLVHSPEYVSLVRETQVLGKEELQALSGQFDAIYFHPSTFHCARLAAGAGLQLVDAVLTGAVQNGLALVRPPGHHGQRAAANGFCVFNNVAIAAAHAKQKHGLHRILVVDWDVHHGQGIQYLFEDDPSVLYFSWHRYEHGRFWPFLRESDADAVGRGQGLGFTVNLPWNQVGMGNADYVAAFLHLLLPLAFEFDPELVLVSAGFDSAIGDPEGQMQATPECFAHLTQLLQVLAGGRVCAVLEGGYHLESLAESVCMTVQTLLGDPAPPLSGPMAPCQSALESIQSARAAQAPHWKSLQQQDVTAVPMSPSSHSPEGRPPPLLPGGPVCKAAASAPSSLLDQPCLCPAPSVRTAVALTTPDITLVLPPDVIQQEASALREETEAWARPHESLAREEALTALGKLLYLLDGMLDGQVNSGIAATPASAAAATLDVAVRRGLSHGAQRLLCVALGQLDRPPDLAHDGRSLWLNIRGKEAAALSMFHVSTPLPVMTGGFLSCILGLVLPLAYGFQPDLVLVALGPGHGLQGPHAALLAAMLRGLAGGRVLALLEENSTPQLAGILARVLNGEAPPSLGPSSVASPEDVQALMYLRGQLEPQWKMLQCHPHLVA
test-readout: IC50 (nM)
Quick reminder: number only, in nM, skip the unit.

-- ask Query: IC50; subject: Cn1c(CCCCCCC(=O)NO)nc2cc(N(CCCl)CCCl)ccc21 [CY190602]
-- reply 72

Taken from patent US9096627B2.
